- Measurement Target: Trypanothione reductase (Trypanosoma cruzi)
- Sequence (P28593 whole entry): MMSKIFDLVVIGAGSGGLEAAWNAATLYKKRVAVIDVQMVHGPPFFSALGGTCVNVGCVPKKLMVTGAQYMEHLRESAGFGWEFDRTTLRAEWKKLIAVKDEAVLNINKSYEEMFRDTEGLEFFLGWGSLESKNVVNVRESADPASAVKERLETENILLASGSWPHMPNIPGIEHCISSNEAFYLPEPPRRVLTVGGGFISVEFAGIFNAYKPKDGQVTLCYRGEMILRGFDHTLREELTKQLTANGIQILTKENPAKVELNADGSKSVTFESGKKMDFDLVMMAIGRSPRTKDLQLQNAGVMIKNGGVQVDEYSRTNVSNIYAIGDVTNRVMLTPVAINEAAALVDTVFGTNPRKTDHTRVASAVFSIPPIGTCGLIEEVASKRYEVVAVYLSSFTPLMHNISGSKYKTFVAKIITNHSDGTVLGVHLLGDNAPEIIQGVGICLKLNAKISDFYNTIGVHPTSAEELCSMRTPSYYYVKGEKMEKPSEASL
- Protocol Description: Compound was evaluated for the competitive inhibition of trypanothione reduction by recombinant Trypanothione reductase from Trypanosoma cruzi
pKi: −log10 of the molar value.
Measurement Type: pKi

P. NCCCN(CCCCN(CCCN)Cc1ccc2ccccc2c1)Cc1ccc2ccccc2c1
Q. NCCCN(CCCCN(CCCN)Cc1ccccc1)Cc1ccccc1
R. NCCCCN(CCCN)Cc1ccc2ccccc2c1
Output the entries ranked by pKi from maximum down to minimum. // respond by listing labels in the order requested
P, Q, R

P. NCCCCN(CCCN)C(=O)OCc1ccccc1
Q. c1ccc2cc(CNCCCCNCCCNCc3ccc4ccccc4c3)ccc2c1
Given P and Q , report the one with the higher recorded pKi. # answer = label of selected item
Q
(Q: 5.02, P: 3.55)

// data source = ChEMBL document CHEMBL1159187
